pIC50, human BTK (Homo sapiens, UniProt Q06187): measured values
Just so you know, pIC50 here is -log10 of the concentration in molar units; reply with that number alone.

Past entries and their recorded results:
{"molecule": "Cc1cc(-c2nc(C(=O)Nc3cn4cc(CCC(C)(C)O)nc4cc3N3CCCCC3)co2)ccn1", "value measured": 8.17}
{"molecule": "Cc1cc(-c2nc(C(=O)Nc3cn4cc(CCC(=O)O)nc4cc3N3CCCCC3)co2)ccn1", "value measured": 7.32}
{"molecule": "Cc1cc(-c2nc(C(=O)Nc3cn4cc(CCC(C)(C)O)nc4cc3-c3ccccc3F)co2)ccn1", "value measured": 7.52}
{"molecule": "Cc1cc(-c2nc(C(=O)Nc3cn4cc(CCC(C)(C)O)nc4cc3N3CCC(CN)CC3)co2)ccn1", "value measured": 7.59}
{"molecule": "Cc1cc(-c2nc(C(=O)Nc3cn4cc(CCC(C)(C)O)nc4cc3N3CCC(O)CC3)co2)ccn1", "value measured": 7.32}

Request: Given the compound `CC(C)(O)CCc1cn2cc(NC(=O)c3coc(-c4ccnc(C5CC5)c4)n3)c(N3CCCCC3)cc2n1` , what is its reported pIC50?
Response: 8.16

Request: Recorded pIC50 of `CC(C)(O)CCc1cn2cc(NC(=O)c3coc(-c4ccnc(C#N)c4)n3)c(N3CCCCC3)cc2n1` , please.
Response: 8.19

Request: I am curious: what pIC50 value has been reported for `Cc1cc(-c2nc(C(=O)Nc3cn4cc(CCC(C)(C)O)nc4cc3-c3ccccc3)co2)ccn1` ?
Response: 7.86

Request: Which pIC50 value is on record for `Cc1cc(-c2nc(C(=O)Nc3cn4cc(CCC(=O)O)nc4cc3N3CCC(C)(C)CC3)co2)ccn1` ?
Response: 8.05

Request: GET /values?readout=pIC50&item= `Cc1cc(-c2nc(C(=O)Nc3cn4cc(CCC(C)(C)O)nc4cc3N3CCC(C(=O)O)CC3)co2)ccn1`
Response: 7.37

Request: What does the record list as pIC50 for `Cc1cc(-c2nc(C(=O)Nc3cn4cc(CCC(=O)O)nc4cc3N3CCC(CO)CC3)co2)ccn1` ?
Response: 8.07
